Hello, the source for this data is PubChem BioAssay, in case you need it.

assay: HepG2 cell viability effects, profiling panel, calcein-AM fluorescence, 48 h, basal (AID 1164); details: higher = more signal; also: test concentration not given here
metric: z-score
Kindly provide the number alone.

Task: Fill in reported z-score for this entry: COC(=O)[C@@H]1CC[C@H](C)[C@@H](c2ccc(C)cc2)N1C(=O)c1ccc(C=NOCC[C@@H]2C=C[C@H](OC(C)=O)[C@@H](COC(C)=O)O2)cc1
Result: -1.13

Task: Fill in reported z-score for this entry: CCOC(=O)[C@H](Cc1ccccc1)NC(=O)CCC1CC(OC(=O)NCCc2ccc(F)cc2)CC2(CCCC(COC(=O)NCc3ccccc3)O2)O1 (stereo partly drawn)
Result: -0.12

Task: Fill in reported z-score for this entry: CCOC(=O)[C@H](Cc1ccccc1)NC(=O)CCC1CC(OC(=O)NCc2ccc3c(c2)OCO3)CC2(CCCC(COC(=O)NCCC(C)C)O2)O1 (stereo partly drawn)
Result: -1.58

###

test system: Inhibin beta A chain (activin A); assay: INHBA (activin A) binders on microarrays, primary screen, biochemical, small-molecule microarray, 635 nm fluorescence scan (AID 1107); conditions: small-molecule microarray binding, higher = more signal;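 also: mouse activin A protein probed at 4.33 µg/mL on printed slides; score merges bound-protein fluorescence near 667 nm with spot signal-to-noise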
Catalogue of composite z-score values

COc1cccc([C@H]2Oc3ccc(OC)cc3C(=NOC(C)CN3CCCCc4nc(C)c(C)cc43)[C@@H]2O)c1 (stereo partly specified) | 0.937
CC[C@@H](c1ccccc1)n1c(=O)n2n(c1=O)[C@H]1[C@H](O)[C@@H]3O[C@@H]3C(=NOC[C@@H](O)COCc3ccco3)[C@H]1CC2 | 1.09
CCO[C@H](c1cc(OC)cc([N+](=O)[O-])c1OC)[C@H](C)C=CCC(=O)OC | 0.0666
O=C1[C@H]2[C@H]3[C@H](O)[C@H](O)CC(=NOC[C@@H](O)COCc4ccco4)[C@H]3CC[C@H]2C(=O)N1c1ccc(F)cc1F | -0.413
COc1ccc(O[C@@H]2[C@H](O)CO[C@@H]2C=Cc2ccccc2)cc1 | 0.448
CCCNC(=O)OC[C@H]1O[C@H](CCON=C(C)CCN2CCCc3nc(C)c(C)cc32)C=C[C@@H]1Oc1ccc(OC)cc1 | 0.491
Cc1ccc(S(=O)(=O)NC(CCc2ccccc2)CC(=O)C(C)(C)C)cc1 (stereo unspecified) | -0.114
CCOC(=O)[C@H](Cc1ccccc1)NC(=O)CCC1CC(OC(=O)NCc2cccc3ccccc23)CC2(CCCC(COC(=O)NCc3cccc(C(F)(F)F)c3)O2)O1 (stereo partly specified) | -0.151

Task: Fill in reported composite z-score for this entry: O=C1OCCC=C1C(O)CCc1ccccc1 (stereo unspecified)
Result: 0.62

Task: Fill in reported composite z-score for this entry: CC(C)CON=C1C[C@@H](O)[C@@H](O)[C@@H]2[C@@H]3C(=O)N(Cc4ccc5c(c4)OCO5)C(=O)[C@@H]3CC[C@H]12
Result: -0.374

###

test: HepG2 liver cancer cell viability effects, profiling panel, resazurin fluorescence, 24 h, PK04 Diversity Set (AID 1172); details: higher = more signal; also: test concentration not given here
Response field class: enum, chosen by comparing z-score against low (below -0.2), middle (-0.2 to below 0.1), high (0.1 or more)

Reference set (3 entries):
C[C@H]1CC[C@H]2C(=O)O[C@H](COc3ccc(C(C)(C)C)cc3)CN2[C@@H]1c1ccc(Br)cc1 | middle
COC(=O)[C@H](C)NC(=O)CCC1CC(OC(=O)NCc2ccc3c(c2)OCO3)CC2(CCCC(COC(=O)NCCc3ccccc3OC)O2)O1 (stereo partly specified) | middle
O=C1C[C@@H](O)[C@@H](O)[C@@H]2[C@@H]3C(=O)N(Cc4ccc5c(c4)OCO5)C(=O)[C@@H]3CC[C@H]12 | high

Task: Exercise: read the entry COC(=O)CC=C[C@@H](C)[C@@H]1C=C[C@H](O)[C@@H](CO)O1 and state which class it falls under.
Result: middle

Task: Exercise: read the entry COC(=O)[C@H](C)NC(=O)CCC1CC(OC(=O)NCc2ccc3c(c2)OCO3)CC2(CCCC(COC(=O)NCc3cccc(C(F)(F)F)c3)O2)O1 (stereo partly specified) and state which class it falls under.
Result: low

Task: Exercise: read the entry CCOC(=O)NN=C1C[C@@H](O)[C@@H](O)[C@@H]2[C@@H]3C(=O)N(c4cccc(Oc5ccccc5)c4)C(=O)[C@@H]3CC[C@@H]12 and state which class it falls under.
Result: high

Task: Exercise: read the entry Cn1c(=O)n2n(c1=O)[C@H]1[C@H](O)[C@@H]3O[C@@H]3C(=NOCc3ccccc3)[C@H]1CC2 and state which class it falls under.
Result: middle

Task: Exercise: read the entry O=C1[C@H]2[C@H]3[C@H](O)[C@H](O)CC(=NOCc4ccccc4)[C@@H]3CC[C@H]2C(=O)N1C[C@@H]1CCCO1 and state which class it falls under.
Result: middle

Task: Exercise: read the entry COC(=O)CC=C[C@@H](C)[C@@H](C=NOC[C@H]1O[C@H](c2ccccc2)C=C[C@@H]1Oc1ccc(OC)cc1)OC and state which class it falls under.
Result: high

Task: Exercise: read the entry CC(=O)Nc1ccc([C@@H]2N[C@H](C(=O)O)CC[C@H]2C)cc1 and state which class it falls under.
Result: high

Task: Exercise: read the entry CC(C)CON=C1C[C@@H](O)[C@@H](O)[C@@H]2[C@@H]3C(=O)N(C[C@@H]4CCCO4)C(=O)[C@@H]3CC[C@@H]12 and state which class it falls under.
Result: middle

Task: Exercise: read the entry C#CCCCON=C1C[C@@H](O)[C@@H](O)[C@@H]2[C@@H]3C(=O)N(CCC(=O)OCC)C(=O)[C@@H]3CC[C@H]12 and state which class it falls under.
Result: low

Task: Exercise: read the entry CSCC[C@@H]1NC(=O)CC=C[C@@H](C)COC(=O)[C@@H](C)COC1=O and state which class it falls under.
Result: high

Task: Exercise: read the entry O=C(C=Cc1ccc2c(c1)OCO2)c1ccc(F)cc1 and state which class it falls under.
Result: low
